Tested on: Staphylococcus aureus
Assay: Antibacterial activity against Staphylococcus aureus ATCC 25923 measured after 24 hrs by two-fold serial dilution method
Type: functional
Details: ATCC 25923, 24 h
Here, each record is paired with measured MIC data.
measuredQuantity: MIC

COc1ccc2cc3[n+](cc2c1OCc1nc2ccccc2[nH]1)CCc1cc2c(cc1-3)OCO2.[Cl-]: 512 µg/mL
O=C(N[C@H](CO)[C@H](O)c1ccc([N+](=O)[O-])cc1)C(Cl)Cl [CHLORAMPHENICOL]: 16 µg/mL
COc1ccc2cc3[n+](cc2c1OCc1nc2ccccc2n1Cc1ccccc1F)CCc1cc2c(cc1-3)OCO2.[Cl-]: 2 µg/mL
CCCCCCCn1c(COc2c(OC)ccc3cc4[n+](cc23)CCc2cc3c(cc2-4)OCO3)nc2ccccc21.[Cl-]: 4 µg/mL
COc1ccc2cc3[n+](cc2c1OCc1nc2ccc(Cl)cc2[nH]1)CCc1cc2c(cc1-3)OCO2.[Cl-]: 64 µg/mL
CCCCCCCCCCCCn1c(COc2c(OC)ccc3cc4[n+](cc23)CCc2cc3c(cc2-4)OCO3)nc2ccccc21.[Cl-]: 8 µg/mL
CCCCCCCCCCCCCCCCCCn1c(COc2c(OC)ccc3cc4[n+](cc23)CCc2cc3c(cc2-4)OCO3)nc2ccccc21.[Cl-]: 512 µg/mL
COc1ccc2cc3[n+](cc2c1OCc1nc2ccccc2n1Cc1ccc(Cl)cc1)CCc1cc2c(cc1-3)OCO2.[Cl-]: 32 µg/mL

* * *

Here, each record is paired with measured MIC data.
Tested on: Staphylococcus aureus
Experiment: Antibacterial activity against Staphylococcus aureus ATCC 25923 measured after 24 hrs by two-fold serial dilution method
Assay type: functional
Details: ATCC 25923, 24 h
measuredQuantity: MIC (µg/mL)

COc1ccc2cc3[n+](cc2c1OCc1nc2ccccc2n1Cc1ccc(F)cc1)CCc1cc2c(cc1-3)OCO2.[Cl-]: 512
COc1ccc2cc3[n+](cc2c1OCc1nc2ccccc2n1Cc1cccc(Cl)c1)CCc1cc2c(cc1-3)OCO2.[Cl-]: 512
COc1ccc2cc3[n+](cc2c1OCc1nc2ccccc2n1Cc1cccc(F)c1)CCc1cc2c(cc1-3)OCO2.[Cl-]: 512
CCn1c(COc2c(OC)ccc3cc4[n+](cc23)CCc2cc3c(cc2-4)OCO3)nc2ccccc21.[Cl-]: 512
CCCCCCCCn1c(COc2c(OC)ccc3cc4[n+](cc23)CCc2cc3c(cc2-4)OCO3)nc2ccccc21.[Cl-]: 8
CCCCCCCCCCn1c(COc2c(OC)ccc3cc4[n+](cc23)CCc2cc3c(cc2-4)OCO3)nc2ccccc21.[Cl-]: 16
COc1ccc2cc3[n+](cc2c1OCc1nc2ccccc2n1Cc1ccc([N+](=O)[O-])cc1)CCc1cc2c(cc1-3)OCO2.[Cl-]: 64

* * *

System: Micrococcus luteus
Experiment: Antibacterial activity against Micrococcus luteus ATCC 4698 measured after 24 hrs by two-fold serial dilution method
Type: functional
Conditions: NCTC 2665, 24 h
measuredQuantity: MIC (µg/mL)

COc1ccc2cc3[n+](cc2c1OCc1nc2ccccc2n1Cc1ccc(Cl)cc1)CCc1cc2c(cc1-3)OCO2.[Cl-]: 8
COc1ccc2cc3[n+](cc2c1OCc1nc2ccccc2n1Cc1ccc(Cl)cc1Cl)CCc1cc2c(cc1-3)OCO2.[Cl-]: 16
O=C(N[C@H](CO)[C@H](O)c1ccc([N+](=O)[O-])cc1)C(Cl)Cl: 8
COc1ccc2cc3[n+](cc2c1OCc1nc2ccccc2n1Cc1ccc(F)cc1)CCc1cc2c(cc1-3)OCO2.[Cl-]: 512
CCCCCCCCCCCCn1c(COc2c(OC)ccc3cc4[n+](cc23)CCc2cc3c(cc2-4)OCO3)nc2ccccc21.[Cl-]: 128
CCCCCCCCCCCCCCCCCCn1c(COc2c(OC)ccc3cc4[n+](cc23)CCc2cc3c(cc2-4)OCO3)nc2ccccc21.[Cl-]: 512

* * *

Tested on: Micrococcus luteus
Assay: Antibacterial activity against Micrococcus luteus ATCC 4698 measured after 24 hrs by two-fold serial dilution method
Format: functional
Conditions: NCTC 2665, 24 h
Here, each record is paired with measured MIC data.
measuredQuantity: MIC (µg/mL)

COc1ccc2cc3[n+](cc2c1OCc1nc2ccccc2n1Cc1cccc(F)c1)CCc1cc2c(cc1-3)OCO2.[Cl-]: 16
CCCCCCCCCCn1c(COc2c(OC)ccc3cc4[n+](cc23)CCc2cc3c(cc2-4)OCO3)nc2ccccc21.[Cl-]: 32
COc1ccc2cc3[n+](cc2c1OCc1nc2ccccc2n1Cc1cccc(Cl)c1)CCc1cc2c(cc1-3)OCO2.[Cl-]: 16
CCCCCCCCCCCCCCCCn1c(COc2c(OC)ccc3cc4[n+](cc23)CCc2cc3c(cc2-4)OCO3)nc2ccccc21.[Cl-]: 128
CCn1c(COc2c(OC)ccc3cc4[n+](cc23)CCc2cc3c(cc2-4)OCO3)nc2ccccc21.[Cl-]: 64
CCCCCCCn1c(COc2c(OC)ccc3cc4[n+](cc23)CCc2cc3c(cc2-4)OCO3)nc2ccccc21.[Cl-]: 64
COc1ccc2cc3[n+](cc2c1OCc1nc2ccccc2n1Cc1ccc([N+](=O)[O-])cc1)CCc1cc2c(cc1-3)OCO2.[Cl-]: 32

* * *

Test system: Staphylococcus aureus
Experiment: Antibacterial activity against Staphylococcus aureus ATCC 25923 measured after 24 hrs by two-fold serial dilution method
Format: functional
Settings: ATCC 25923, 24 h
Consider the cut-off 60 µg/mL. If the recorded MIC is strictly smaller, the label is MET; if not, the label is NOT MET.

CCCCCCCCCCCCCCCCn1c(COc2c(OC)ccc3cc4[n+](cc23)CCc2cc3c(cc2-4)OCO3)nc2ccccc21.[Cl-]: NOT MET
COc1ccc2cc3[n+](cc2c1OCc1nc2ccc(F)cc2[nH]1)CCc1cc2c(cc1-3)OCO2.[Cl-]: MET
CCCn1c(COc2c(OC)ccc3cc4[n+](cc23)CCc2cc3c(cc2-4)OCO3)nc2ccccc21.[Cl-]: NOT MET
CCn1cc(C(=O)O)c(=O)c2cc(F)c(N3CCNCC3)cc21: MET
CCCCCn1c(COc2c(OC)ccc3cc4[n+](cc23)CCc2cc3c(cc2-4)OCO3)nc2ccccc21.[Cl-]: NOT MET
COc1ccc2cc3[n+](cc2c1OCc1nc2ccccc2n1Cc1ccc(Cl)cc1Cl)CCc1cc2c(cc1-3)OCO2.[Cl-]: NOT MET

The reported measurements were obtained from ChEMBL document CHEMBL3865797.
